Origin of values: ChEMBL document CHEMBL1137871

Documented pIC50 across a set of compounds
Biological target: Prostaglandin D2 receptor (Mus musculus)
Sequence (P70263 whole entry): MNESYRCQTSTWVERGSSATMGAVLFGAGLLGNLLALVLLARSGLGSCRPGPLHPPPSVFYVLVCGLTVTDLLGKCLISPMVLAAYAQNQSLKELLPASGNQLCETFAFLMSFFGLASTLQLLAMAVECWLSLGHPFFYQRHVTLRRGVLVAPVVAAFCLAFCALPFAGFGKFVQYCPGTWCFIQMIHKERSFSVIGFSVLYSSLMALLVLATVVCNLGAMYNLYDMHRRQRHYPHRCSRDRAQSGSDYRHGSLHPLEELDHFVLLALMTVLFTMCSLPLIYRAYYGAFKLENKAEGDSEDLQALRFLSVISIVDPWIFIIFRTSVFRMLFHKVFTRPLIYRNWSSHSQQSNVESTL
Test: Effect on the increase in cAMP formation induced by PGD-2 in the presence of bovine serum albumin in CHO cells expressing mouse Prostaglandin D2 receptor
In simple prose, pIC50 is minus the logarithm base ten of a concentration in moles per litre.

Incoming: Given `Cc1cc2c(CC(=O)O)cccc2n1C(=O)c1ccc(OCCOc2ccccc2)cc1` , report its pIC50 on Prostaglandin D2 receptor (Mus musculus).
Outgoing: 7.30

Incoming: Given `Cc1cc2c(CC(=O)O)cccc2n1C(=O)c1ccc(OCc2ccccc2)cc1` , report its pIC50 on Prostaglandin D2 receptor (Mus musculus).
Outgoing: 5.89

Incoming: Given `CCCCOc1ccc(C(=O)n2c(C)cc3c(CC(=O)O)cccc32)cc1` , report its pIC50 on Prostaglandin D2 receptor (Mus musculus).
Outgoing: 6.52

###

Biological target: Prostaglandin E2 receptor EP3 subtype (Mus musculus)
Sequence (P30557 whole entry): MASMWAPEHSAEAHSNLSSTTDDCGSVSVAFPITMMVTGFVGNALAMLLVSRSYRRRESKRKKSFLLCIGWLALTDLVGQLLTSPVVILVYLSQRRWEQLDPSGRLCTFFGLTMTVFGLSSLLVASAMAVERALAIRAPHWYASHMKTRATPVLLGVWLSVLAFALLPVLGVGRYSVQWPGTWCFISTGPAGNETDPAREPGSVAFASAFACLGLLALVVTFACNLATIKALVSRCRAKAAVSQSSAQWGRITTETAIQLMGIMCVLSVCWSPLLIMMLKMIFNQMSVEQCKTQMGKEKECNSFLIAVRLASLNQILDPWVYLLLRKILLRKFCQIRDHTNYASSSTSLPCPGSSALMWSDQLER
Experiment: Ability to inhibit the binding of [3H]PGD-2 radioligand to membranes of CHO cells stably expressing mouse Prostaglandin E receptor EP3
Format: cell membranes
Measured endpoint: pKi
In simple prose, pKi is minus the logarithm base ten of a concentration in moles per litre.

Previously resolved entries follow.
Cc1cc2c(CC(=O)O)cccc2n1C(=O)c1ccc(OCc2ccccc2)cc1	5.92
Cc1cc2c(CC(=O)O)cccc2n1C(=O)c1ccc(OCC2Oc3ccccc3O2)cc1	6.12
Cc1cc2c(CC(=O)O)cccc2n1C(=O)c1ccc(OCC2Cc3ccccc3O2)cc1 (configuration not stated)	6.01
Cc1cc2c(CC(=O)O)cccc2n1C(=O)c1ccc(OCCc2ccccc2)cc1	5.66

From here, focus on the item given below.
Incoming: Look up and report measured pKi for this entry: `Cc1cc2c(CC(=O)O)cccc2n1C(=O)c1ccc(OCCCc2ccccc2)cc1`
Outgoing: 5.48
